All values here come from BigSolDB 2.1.

Conditions: in ethyl acetate, 278.15 K
observation-type: solubility (mole fraction)
Would you mind answering with just the numeric figure?

solubility (mole fraction) in this record for "O=C1OC(=O)[C@H]2[C@@H]1[C@@H]1C=C[C@H]2O1" : 0.0152

###

Details: in 1,4-dioxane, 313.15 K
observation-type: solubility (mole fraction)

solubility (mole fraction) in this record for "O=C1OC(=O)[C@H]2[C@@H]1[C@@H]1C=C[C@H]2O1" : 0.0682
